Value source: paper PMC9482650

tested-system: Inadl_3, Q8NI35
Sequence (Q8NI35 359-469): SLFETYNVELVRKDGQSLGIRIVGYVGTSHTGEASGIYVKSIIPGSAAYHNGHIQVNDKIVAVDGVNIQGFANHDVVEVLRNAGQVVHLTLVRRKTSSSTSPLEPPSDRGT
protocol-notes: holdup assay
Design: key: below the threshold = too weak to quantify, mostly under pKd 3.1 to 4
condition-description: plain residues with an end cap or a label only (N-terminal biotin on a linker: ado-ado)

binder | pKd
YRLAQESGLV [ABCC6, O95255] | below the threshold
HSGYRLNDYV [CLDN14, O95500] | below the threshold
PRAEAEDSFL [PDGFRB, P09619] | below the threshold
VNKSKLLTDV [KCNA1, Q09470] | below the threshold
LSEFKAMDSI [CTNNA1, P35221] | below the threshold
EVNETDDTKM [KCNJ1, P48048] | below the threshold
SKSNFGSEPL [KIF17, Q9P2E2] | below the threshold
HLRARKSEWV [GJD4, Q96KN9] | below the threshold
VDSTVKVWTC [TRAF7, Q6Q0C0] | 4.4
QPCFNKLFPL [LPXN, O60711] | below the threshold
GNSVLKSTQF [SLC22A12, Q96S37] | below the threshold
SAKVRTVTSV [RASL11B, Q9BPW5] | below the threshold
RRRESYSTTV [EVI5, O60447] | 3.99
YNNCLEILRV [DCAF7, P61962] | below the threshold
RKPKPSSSCC [RAB9A, P51151] | below the threshold
IKAIVDLTGL [TRAF2, Q12933] | below the threshold
SARSRLSSNL [HCN2, Q9UL51] | below the threshold
GSGAVEMESV [AQP6, Q13520] | below the threshold
YYKRPVQEWV [MMP24, Q9Y5R2] | below the threshold
RRISSLESEV [GRIN2C, Q14957] | 3.68
LPHGHSTTRV [NLGN4X, Q8N0W4] | below the threshold
RHGSCVETSL [TMEM151B, Q8IW70] | 3.59
TPPAAKKSRI [BAZ1A, Q9NRL2] | below the threshold
DTTVPESEDL [MYOZ2, Q9NPC6] | below the threshold
FNSYSLTGYV [CLDN2, P57739] | 3.57
TSSMRGMDAV [RSRC2, Q7L4I2] | below the threshold
LGRSTPQSEV [DGKH, Q86XP1] | below the threshold
PKRSFIESNV [TANC1, Q9C0D5] | 3.56
QGPVETESVV [SLC45A4, Q5BKX6] | 3.96
LKVPPEERLI [CRB2, Q5IJ48] | 3.6
VKPQVSESKL [ACOT8, O14734] | below the threshold
LPAHHNATRL [SLC34A1, Q06495;Q06495-1] | below the threshold
